- Protocol: PAMPA (parallel artificial membrane permeability assay)
- Assay type: in vitro ADME
- Test Conditions: PAMPA; membrane permeation rate (Pe); 50 mM MOPSO buffer pH 6.5 with 5.0% glycocholic acid, 37° C., 18 hours; read-out: iPAMPA Pe
Starred links: 1 amine or outer side, 2 acyl side, 3 side chain; linkers in the order of their positions; H or OH if unused. Positions of bridges follow the written chain, without caps; N, C: chain ends. Non-standard residues stand in square brackets, D forms with d. Residues, ends and D or L forms follow the SMILES beside them. *: point of attachment. NMeF = CN[C@@H](Cc1ccccc1)C(=O)O; NMeGABA = CN(CCCC(=O)[*:2])[*:1]; NMeβAla = CN(CCC(=O)[*:2])[*:1]; Aoc(2) = CCCCCC[C@H](N)C(=O)O; NMeL = CN[C@@H](CC(C)C)C(=O)O; NMeV = CN[C@H](C(=O)O)C(C)C; NMeA = CN[C@@H](C)C(=O)O; Piperidide = C1CCN(*)CC1; dNMeA = CN[C@H](C)C(=O)O; β3hA = C[C@H](N)CC(=O)O; Sar = CNCC(=O)O; tBu = CC(C)(C)*
yes if Papp at 18 hours, 50 µM is below 40 ×10⁻⁶ cm/s. no if not; exact matches included in no.

Worked examples follow.
Compound	Classification
CC(C)C[C@H]1C(=O)N[C@H](C(=O)N2CCCCC2)CC(=O)N(C)[C@H](C)C(=O)N(C)[C@@H](Cc2ccccc2)C(=O)N(C)[C@@H](CC(C)C)C(=O)N[C@@H]([C@@H](C)O)C(=O)N(C)CC(=O)N[C@@H](COC(C)(C)C)C(=O)N1C [DP-527] ([dNMeA][NMeF][NMeL]T[Sar]S(tBu)[NMeL]D-Piperidide; lactam N-8)	yes
CC(C)C[C@@H]1NC(=O)[C@H](Cc2ccccc2)N(C)C(=O)CCN(C)C(=O)C[C@@H](C(=O)N2CCCCC2)NC(=O)[C@H](CC(C)C)N(C)C(=O)[C@H](C)N(C)C(=O)[C@H]([C@@H](C)O)NC(=O)[C@H](CC(C)C)N(C)C(=O)[C@H](Cc2ccccc2)N(C)C1=O [DP-268] ([NMeβAla][NMeF]L[NMeF][NMeL]T[NMeA][NMeL]D-Piperidide; lactam N-9)	no
CC(C)C[C@H]1C(=O)N(C)[C@@H](Cc2ccccc2)C(=O)NCC(=O)N[C@H](C(=O)N2CCCCC2)CC(=O)N(C)CC(=O)N[C@@H]([C@@H](C)O)C(=O)N(C)[C@@H](C)C(=O)N[C@@H](COC(C)(C)C)C(=O)N(C)[C@@H](Cc2ccccc2)C(=O)N1C [DP-271] ([Sar]T[NMeA]S(tBu)[NMeF][NMeL][NMeF]GD-Piperidide; lactam N-9)	yes
CC(C)C[C@H]1C(=O)N[C@@H](COC(C)(C)C)C(=O)N[C@H](C(=O)N2CCCCC2)CC(=O)N(C)[C@H](C)C(=O)N(C)[C@@H](C)C(=O)N(C)[C@@H](Cc2ccccc2)C(=O)N(C)[C@@H](CC(C)C)C(=O)N[C@@H]([C@@H](C)O)C(=O)N(C)[C@@H](C)C(=O)N1C [DP-160] ([dNMeA][NMeA][NMeF][NMeL]T[NMeA][NMeL]S(tBu)D-Piperidide; lactam N-9)	yes
CCCCCC[C@@H]1NC(=O)[C@H](Cc2ccccc2)N(C)C(=O)[C@H](C)N(C)C(=O)C[C@H](C)NC(=O)[C@H](C(C)C)N(C)C(=O)[C@H](COC(C)(C)C)NC(=O)[C@H](C)N(C)C(=O)CN(C)C(=O)[C@H]([C@@H](C)O)NC(=O)[C@H](CC(C)C)N(C)C1=O [DP-822] (cyclo([Aoc(2)][NMeL]T[Sar][NMeA]S(tBu)[NMeV][β3hA][NMeA][NMeF]))	yes
CC(C)C[C@H]1C(=O)N[C@H](C(=O)N2CCCCC2)CC(=O)N(C)CC(=O)N[C@@H]([C@@H](C)O)C(=O)N(C)[C@@H](C)C(=O)N[C@@H](COC(C)(C)C)C(=O)N(C)[C@@H](Cc2ccccc2)C(=O)N1C [DP-531] ([Sar]T[NMeA]S(tBu)[NMeF][NMeL]D-Piperidide; lactam N-7)	yes

IN: Could you please tell me whether Papp at 18 hours, 50 µM recorded for C=C1CCC(=O)N[C@@H](CC(C)C)C(=O)N[C@@H](C(C)C)C(=O)N(C)[C@@H](CC(C)C)C(=O)N[C@@H](Cc2ccccc2)C(=O)N(C)[C@@H](Cc2ccccc2)C(=O)N[C@@H]([C@@H](C)CC)C(=O)N(C)[C@@H](C)C(=O)N[C@@H](CC(C)C)C(=O)N[C@@H]([C@@H](C)O)C(=O)N[C@H](C(=O)N2CCCCC2)Cc2ccc1cc2 is less than 40 ×10⁻⁶ cm/s?
OUT: yes

IN: Could you please tell me whether Papp at 18 hours, 50 µM recorded for CC(C)C[C@H]1C(=O)N[C@@H]([C@@H](C)O)C(=O)N(C)[C@@H](C)C(=O)N(C)[C@@H](CC(C)C)C(=O)N(C)[C@@H](Cc2ccccc2)C(=O)N[C@H](C(=O)N2CCCCC2)CC(=O)N(C)CCCC(=O)N(C)[C@@H](C)C(=O)N1C [DP-524] ([NMeGABA][NMeA][NMeL]T[NMeA][NMeL][NMeF]D-Piperidide; lactam N-8) is less than 40 ×10⁻⁶ cm/s?
OUT: yes

IN: Could you please tell me whether Papp at 18 hours, 50 µM recorded for CC[C@H](C)[C@@H]1NC(=O)[C@H](CC(C)C)N(C)C(=O)[C@H](C)N(C)C(=O)[C@H]([C@@H](C)O)NC(=O)[C@H](Cc2ccccc2)N(C)C(=O)[C@H](C)N(C)C(=O)[C@@H](C)N(C)C(=O)C[C@@H](C(=O)N(C)[C@@H](Cc2ccccc2)C(=O)N(C)[C@@H](Cc2ccccc2)C(=O)N[C@@H](C)C(=O)N2CCCCC2)NC(=O)[C@H](C(C)C)N(C)C(=O)[C@H](CC(C)C)N(C)C1=O [DP-300] ([dNMeA][NMeA][NMeF]T[NMeA][NMeL]I[NMeL][NMeV]D[NMeF][NMeF]A-Piperidide; lactam N-10) is less than 40 ×10⁻⁶ cm/s?
OUT: yes

IN: Could you please tell me whether Papp at 18 hours, 50 µM recorded for CC(C)C[C@@H]1NC(=O)[C@H](Cc2ccccc2)N(C)C(=O)[C@H](CC(C)C)N(C)C(=O)CCN(C)C(=O)C[C@@H](C(=O)N2CCCCC2)NC(=O)[C@H](CC(C)C)N(C)C(=O)[C@H](Cc2ccccc2)N(C)C(=O)[C@H]([C@@H](C)O)NC(=O)[C@H](Cc2ccccc2)N(C)C1=O [DP-126] ([NMeβAla][NMeL][NMeF]L[NMeF]T[NMeF][NMeL]D-Piperidide; lactam N-9) is less than 40 ×10⁻⁶ cm/s?
OUT: no
